targetOrTestSystem: Human recombinant Monoamine Oxidase B (Homo sapiens, UniProt P27338)
Construct: purchased Sigma Aldrich M7441
Sequence (P27338 whole entry): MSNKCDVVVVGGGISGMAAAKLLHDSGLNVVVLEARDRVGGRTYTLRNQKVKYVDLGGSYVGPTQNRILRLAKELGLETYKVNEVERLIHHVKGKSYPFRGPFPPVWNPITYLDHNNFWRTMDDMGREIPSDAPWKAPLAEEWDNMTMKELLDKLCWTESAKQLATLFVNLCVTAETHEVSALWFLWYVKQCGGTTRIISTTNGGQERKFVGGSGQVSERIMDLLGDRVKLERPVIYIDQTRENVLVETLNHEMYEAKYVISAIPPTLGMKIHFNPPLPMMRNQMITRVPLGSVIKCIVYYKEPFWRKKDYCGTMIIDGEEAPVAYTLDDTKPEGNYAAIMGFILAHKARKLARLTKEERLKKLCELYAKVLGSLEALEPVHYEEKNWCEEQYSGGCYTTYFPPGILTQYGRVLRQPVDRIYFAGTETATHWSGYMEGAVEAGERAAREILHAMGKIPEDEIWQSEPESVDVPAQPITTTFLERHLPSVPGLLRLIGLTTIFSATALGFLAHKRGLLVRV
assayOverview: MAOs inhibitory assay (fluorescence-based microplate), MAO-B
Assay type: biochemical
recordedConditions: recombinant enzyme; inhibitor incubated 37 °C 3 h, borate buffer pH 8.4; mean IC50
// NB: equality with 500 µM counts as F; only IC50 strictly below is T

Query: # check: IC50 < 500 µM for NC(=O)COc1ccccc1C=O [Compound 7]
Response: F

---

targetOrTestSystem: Human recombinant Monoamine Oxidase B (Homo sapiens)
Construct: purchased Sigma Aldrich M7441
assayOverview: MAOs inhibitory assay (fluorescence-based microplate), MAO-B
Format: biochemical
recordedConditions: recombinant enzyme; inhibitor incubated 37 °C 3 h, borate buffer pH 8.4; mean IC50
# IC50 annotations
Value expressed in µM; do not type the unit.

Here's what some known entries look like.
NC(=O)COc1ccc(F)cc1	255
Cc1ccccc1OCC(N)=O	663
NC(=O)COc1ccccc1Cl	694
NC(=O)COc1ccc(C2=NCCN2)cc1	506

In the following, a different compound is considered.
The observed IC50 for COc1ccc(OCC(N)=O)cc1 [Compound 12, 2-(4-Methoxyphenoxy)acetamide] when tested with Human recombinant Monoamine Oxidase B (Homo sapiens) stands at 980
